- System: T1, SHANK2 PDZ domain (mouse, UniProt Q80Z38 247-340)
- T1 construct: SHANK2 PDZ domain, mouse, UniProt Q80Z38, residues 247-340; Expressed from pET151; His-tag removed with AcTEV protease; 15N-labelled for NMR
- T1 sequence (looked up): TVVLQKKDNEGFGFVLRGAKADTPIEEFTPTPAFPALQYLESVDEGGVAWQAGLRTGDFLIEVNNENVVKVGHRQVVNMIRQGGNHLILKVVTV
- Assay Protocol: fluorescence polarisation; dye-labelled peptide against a twofold serial dilution of the protein in PBS (10 mM Na2HPO4, 1.8 mM KH2PO4, pH 7.4, 137 mM NaCl, 2.7 mM KCl), 25°C; one-site total binding fit; triplicate
- Experimental Context: both partners purified
Where no end group is shown, it is not given here. maleimide‑fluorescein = Maleimide-fluorescein dye, coupled to a cysteine thiol
Experimental Endpoint: Kd (µM)

[
  {
    "Binder": "C(maleimide‑fluorescein)YNRTNRSRMPNLNDLKETAL (single non-native N-terminal cysteine for coupling the dye; ends in -ETAL (957-960); also called CDKL5-1 C-terminal tail peptide; CDKL5 isoform 1 C-terminus; source: synthetic peptide (GLBiochem, Shanghai)) [CDKL5-1^941-960 peptide, fluorescein-labelled]",
    "Recorded Measurement": 5.2
  }
]
